Test system: chimeric Caspase-9 polypeptide
Sequence (P62942 2-108 F37V limits assumed): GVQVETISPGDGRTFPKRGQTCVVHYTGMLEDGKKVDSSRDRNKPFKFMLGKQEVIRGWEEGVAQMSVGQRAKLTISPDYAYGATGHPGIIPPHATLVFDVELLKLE
Test: Caspase-9 mutant classes and basal activity (Table 5)
Format: cell-based
Settings: Caspase-9 mutant class
measurement_name: Catalytic activity (class 'Catalytically dead')

[
  {
    "molecule": "G402Q (protein) GFGDVGALESLRGNADLAYILSMEPCGHCLIINNVNFCRESGLRTRTGSNIDCEKLRRRFSSLHFMVEVKGDLTAKKMVLALLELARQDHGALDCCVVVILSHGCQASHLQFPGAVYGTDGCPVSVEKIVNIFNGTSCPSLGGKPKLFFIQACGGEQKDHGFEVASTSPEDESPGSNPEPDATPFQEGLRTFDQLDAISSLPTPSDIFVSYSTFPGFVSWRDPKSGSWYVETLDDIFEQWAHSEDLQSLLLRVANAVSVKGIYKQMPQCFNFLRKKLFFKTSASRA",
    "experimental_result": "dead"
  },
  {
    "molecule": "F404S (protein) GFGDVGALESLRGNADLAYILSMEPCGHCLIINNVNFCRESGLRTRTGSNIDCEKLRRRFSSLHFMVEVKGDLTAKKMVLALLELARQDHGALDCCVVVILSHGCQASHLQFPGAVYGTDGCPVSVEKIVNIFNGTSCPSLGGKPKLFFIQACGGEQKDHGFEVASTSPEDESPGSNPEPDATPFQEGLRTFDQLDAISSLPTPSDIFVSYSTFPGFVSWRDPKSGSWYVETLDDIFEQWAHSEDLQSLLLRVANAVSVKGIYKQMPGCSNFLRKKLFFKTSASRA",
    "experimental_result": "dead"
  }
]
